Molecular target: SARS-CoV-2 spike protein with D614G mutation (SARS-CoV-2, UniProt P0DTC2 14-1208)
pKd: −log10 of the molar value.
// label = class 1 if pKd is not less than 10, otherwise class 0

binder | answer label
anti-SARS-CoV-2 antibody 1193 (antibody, V domains shown) VH: EVQLVESGGGLVQPGGSLRLSCAASGFTFSSYYMNWVRQAPGKGLEWVSYISSGSSIIYYADSVKGRFTISRDNAKNSLYLQMNSLRDEDTAVYYCARDSPLRYFDWQLGGGFDYWGQGTLVTVSS VL: QSALTQPASVSGSPGQSITISCTGTSSDVGGYNYVSWYQQHPGKAPKLMIYDVSNRPSGVSNRFSGSKSGNTASLTISGLQAEDEADYYCSSYTSSSLWVFGGGTKLTVL | class 1
anti-SARS-CoV-2 antibody 1009 (antibody, V domains shown) VH: QLQLQESGPGLVKPSQTLSLTCTVSGGSISSGSYYWSWIRQPAGKGLEWIGSIYTSGSTYYNPSLKSRVTISVDTSKNQFSLKLSSVTAADTAVYYCARKNWLQGSFDYWGQGTLVIVSS VL: NFMLTQPHSVSESPGKTVTISCTRSSGSIANNYVQWYQQRPGSAPTTVIYEDNQRPSGVPDRFSGSIDSSSNSASLTISGLKTEDEADYYCQSYDTSNHGVFGGGTKLTVL | class 1
anti-SARS-CoV-2 antibody 933 (antibody, V domains shown) VH: QVQLVQSGAEVKKPGASVKVSCKASGYTFTTYDINWVRQATGQGLEWMGWMNPNSGYTDSAQKFQGRVTMTRNTSISTAYMELSSLRSEDTAVYYCASGRGVKTYYFDYWGQGTLVTVSS VL: SYELTQPPSVSVSPGQTASITCSGDKLGDKSACWYQQKPGQSPVLVICQDTKRPSGIPERFSGSNSGNTATLTISGTQAMDEADYYCQAWDSRTVVFGGGTKLTVL | class 0
anti-SARS-CoV-2 antibody 1027 (antibody, V domains shown) VH: EVQLVESGGGLVQPGGSLRLSCAASGFTVSSNYMSWVRQAPGKGLEWVSIIYSGGSTFYADSVKGRFTISRDSSKNTLYLQMSSLRAEDTAVYYCARDLDYYGMDVWGQGTTVTVSS VL: DIQLTQSPSFLSAPVGDRVTITCRASQGISSYLAWYQQKPGKAPKLLIYGASTLQSGVPSRFSGSGSGTEFTLTISSLQPEDFATYYCQQLNSYQRFTFGPGTKVEIK | class 1
anti-SARS-CoV-2 antibody 1000 (antibody, V domains shown) VH: EVQLVESGGGLVQPGRSLRLSCAASGFTFDDYAMHWVRQAPGEGLEWVSGISWNSGSIGYADSVKGRFTISRDNAKNSLYLQMNSLRAEDTALYYCAKDTRFSFGTIAAAVSGYGMDVWGQGTTVTVSS VL: QSALTQPASVSGSPGQSITISCTGTSSDVGIFNLVSWYQQHPGKAPKLMIYEVTKRPSGVSNRFSGSKSGNTASLTISGLQAEDEADYYCCSYAGSYVFGTGTKVTVL | class 1

All figures here come from patent US20210292393A1.
